tested on: Escherichia coli TOP10; experiment: shrunken log2 fold change of peptide-encoding DNA abundance (4.5 h post-induction vs induction); higher = less antimicrobial activity (less host growth inhibition); conditions: time post-induction: 4.5 h; library: site-saturation at positions 5, 18, 19, 20;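 further: peptides expressed intracellularly from a pBAD plasmid library in pooled LB shake-flask culture, induced with 0.3% L-arabinose, DNA abundance read by NGS, three biological replicates, DESeq2 with apeglm shrinkage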
Consider the following sequences and their measured shrunken log2 fold change readings.
Lab note: jot the number down without any unit.

Answered cases to consult:
I would be grateful if you could share the reported shrunken log2 fold change for "RRIRDRPPRLPRPRPRPKEFPRP" .
0.0479

Quick check: shrunken log2 fold change of "RRIRMRPPRLPRPRPRPWQHPRP" ?
0.0948

Could you share which shrunken log2 fold change value was measured for "RRIRVRPPRLPRPRPRPSQHPRP" ?
-0.39

Look at this sequence and give its reported shrunken log2 fold change. "RRIRLRPPRLPRPRPRPHSLPRP"
0.0368

Which shrunken log2 fold change reading was recorded for the sequence "RRIRTRPPRLPRPRPRPMMTPRP" ?
0.0356

Further cases:
Item under review: "RRIRERPPRLPRPRPRPACFPRP" . Reported shrunken log2 fold change?
0.00624

// shrunken log2 fold change lookup, key: "RRIRRRPPRLPRPRPRPKIFPRP"
0.0586
